Target: T1, PUF4 RNA-binding domain (Saccharomyces cerevisiae, UniProt P25339 537-888)
T1 sequence: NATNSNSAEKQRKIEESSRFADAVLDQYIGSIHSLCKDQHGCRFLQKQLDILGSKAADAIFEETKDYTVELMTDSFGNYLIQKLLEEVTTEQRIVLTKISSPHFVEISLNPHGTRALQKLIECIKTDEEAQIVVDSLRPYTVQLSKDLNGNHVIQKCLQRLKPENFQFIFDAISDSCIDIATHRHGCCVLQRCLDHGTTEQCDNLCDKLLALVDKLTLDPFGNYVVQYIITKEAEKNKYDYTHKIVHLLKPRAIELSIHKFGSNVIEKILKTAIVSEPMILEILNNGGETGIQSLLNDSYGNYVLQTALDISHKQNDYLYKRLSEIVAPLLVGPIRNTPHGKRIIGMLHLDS
Experiment: Mg; RNA-MaP; 20 mM Na-HEPES pH 7.4, 30 mM KOAc, 0.75 mM MgCl2, 0.1% Tween-20, 5% glycerol, 0.1 mg/mL BSA, 2 mM DTT; 25 C; 0.0125-409.6 nM protein
Settings: tags: N-His6-TEV cleaved; C-SNAP kept, Cy3B-labelled; label: tethered on chip by stalled RNA polymerase

- binder: "UCUCUUUCUGUAUAUCUCUU (ssRNA) [Ib_S1_P3E.1_K3.1_C3.1_H3.1_[G2C]_[A4G]_A3.1_F3.1_T3.1]"
  Kd: "27.6 nM"
- binder: "UCUCUUUGUAUGCCGGUCUCUU (ssRNA) [Ic_S1_P5E.1_K5.1_C5.1_H5.1_A5.1_[T6G]_[A7C]_F5.1_[T8C]_[T9G]_[A10G]_T5.1]"
  Kd: "> 2300 nM"
- binder: "UCUCUUUGUAAUGCAUUCUCUU (ssRNA) [Ic_S1_P5E.1_K5.1_C5.1_H5.1_A5.1_[T5A]_[A7G]_F5.1_[T8C]_[T9A]_[A10T]_T5.1]"
  Kd: "910 nM"
- binder: "Ic_S2_P4E.1_K4.1_C4.1_H4.1_A4.1_[T5A]_[A6C]_[T7C]_F4.1_[T8C]_[A9C]_T4.1 (ssRNA) RNA: UUUGAUUAAUAUGAUAUCGUUCUUUCUUGUAACCCCUUCUUUCUCGAUAUCAUAUUAAUCUUU"
  Kd: "582 nM"
- binder: "Id_iii_S2_P5E.8_K5.4_C5.3_[C-2T]_H5.1_A5.2_F5.1_T5.2 (ssRNA) RNA: UUUGAUUAAUAUGAUAUCGUUCUUUCUUUUUGUAAUAUUAUAUUCUUUCUCGAUAUCAUAUUAAUCUUU"
  Kd: "8.91 nM"
- binder: "UCUCUUUGUACCUAACUCUCUU (ssRNA) [Ic_S1_P5E.1_K5.1_C5.1_H5.1_A5.1_[T5C]_[T6C]_[A7T]_F5.1_[T8A]_[T9A]_[A10C]_T5.1]"
  Kd: "65.6 nM"
